- System name: T1, CD47 on breast cancer cell line MCF-7 (UniProt Q08722 19-323, limits assumed)
- T1 construct: whole, on cells; Endogenous CD47 of MCF-7 cells; also called CD47-expressing tumor cells (MCF-7); CD47-expressing cells
- T1 sequence (Q08722 19-323 limits assumed): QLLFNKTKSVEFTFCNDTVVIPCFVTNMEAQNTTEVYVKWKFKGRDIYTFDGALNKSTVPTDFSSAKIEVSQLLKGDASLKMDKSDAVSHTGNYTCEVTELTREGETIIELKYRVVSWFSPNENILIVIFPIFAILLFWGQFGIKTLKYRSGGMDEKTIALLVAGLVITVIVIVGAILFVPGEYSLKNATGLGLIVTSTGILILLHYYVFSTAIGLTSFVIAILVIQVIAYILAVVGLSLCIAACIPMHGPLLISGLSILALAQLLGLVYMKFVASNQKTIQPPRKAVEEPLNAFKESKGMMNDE
- Test description: flow cytometry on MCF-7 cells, 1 ug antibody, PE anti-mouse IgG
Param threshold (10000) applies to Median; output 1 (yes) when value >= threshold, 0 (no) when value < threshold.

Illustrative cases are given below, each with its answer.
Binder: 3A5 antibody (antibody, V domains shown, Hybridoma monoclonal antibody detected with anti-mouse IgG) VH: EVQLQQPGAELVKPGASVKMSCKASGYTFTSYWMHWMNQRPGQGLEWIGVIDPSDSYTSYNQKFKGKATLTVDTSSSTAYMQLSSLTSEDSAVYYCARGGKRAMDYWGQGTSVTVSS VL: DVLMTQTPLSLPVSLGDQASISCRSSQSLVHSNGNTYLHWYLQKPGQSPKLLIYKVSNRFSGVPDRFSGSGSGTDFTLKISRVEAEDLGVYFCSQSTHVPFTFGSGTKLEIK
Group label: 1 (yes)

Binder: 4E12 antibody (antibody, V domains shown, Hybridoma monoclonal antibody detected with anti-mouse IgG) VH: QIQFAQSGPELKKSGETVKISCRASGYTFTNYGMNWVKQAPGKGLKWMGWINTYTGEPTYADDFKGRFAFSLETSASTAYLQINNLKNEDMATYFCARGGGRGAMDYWGQGTTLTVSS VL: DVLMTQTPLSLPVSLGDQASISCRSSQSIVHSNGNTYLDWYLQKPGQSPKLLIYKVSKRFSGVPDRFSGSGSGTDFTLKISRVEAEDLGVYYCFQGSHVPFTFGSGTKLEIK
Group label: 0 (no)

Binder: 1E7 antibody (antibody, V domains shown, Hybridoma monoclonal antibody detected with anti-mouse IgG) VH: EVQLQQSGPELIKPGASVKMSCKASGYIFTSYVVYWVKQKPGQGLEWIGYINPYNDGTKYNEKFKGKATLTSYKSSSTAYMELSSLTSADSAVYYCARGGFTTDYWGQGTTLTVSS VL: DVLMTQTPLSLPVSLGDQASISCRSSQSLVHSNGNTYLHWYLQKPGQSPKLLIYKVSNRFSGVPDRFSGSGSGTDFTLKISRVEAEDLGVYFCSQSTHVPYTFGGGTKLEIK
Group label: 1 (yes)

Binder: 3H3 antibody (antibody, V domains shown, Hybridoma monoclonal antibody detected with anti-mouse IgG) VH: EVQLQQPGPELVRPGASVKMSCKASGYTFTNYWMHWVKQRPGQGLEWIGMIDPSNSETRLNQKFKDKATLNVDKSSNTAYMQLSSLTSEDSAVYSCARGGFAFDSWGQGTTLTVSS VL: DVLMTQTPLSLPVSLGDQASISCRSSQSLVHNNGNTYLHWYLQKPGQSPKLLIYKVSNRFSGVPDRFRGSGSGTDFTLKISRVEAEDLGVYFCSQSTHVPWTFGGGTKLEIK
Group label: 1 (yes)

Binder: 5A4 antibody (antibody, V domains shown, Hybridoma monoclonal antibody detected with anti-mouse IgG) VH: QVQLQQPGPELVRPGASVKMSCKASGYTFTNYWIHWVKQRPGQGLEWIGMIDPSNSATRLNQKFKDKATLNVDKSSNTAYMQLSSLTSEDSAVYYCARGGFAFDSWGQGTTLTVSS VL: DVLMTQTPLSLPVSLGDQASISCRSSQSLVHSNGNTYLHWYLQKPGQSPKLLIYKVSNRFSGVPDRFSGSGSGTDFTLKISRVEAEDLGVYFCSQSTHVPWTFGGGTKLEIK
Group label: 1 (yes)

I'd appreciate it if you could say whether 7C7 antibody (antibody, V domains shown, Monoclonal antibody from a hybridoma (mouse myeloma fusion), detected with anti-mouse IgG; In the ELISA hybridoma culture solution was used) VH: EVQLQQSGPELVKPGASVRMSCKASGYTFTSYVMHWVKQKPGQGLEWIGYINPYNDGTKYNEKFKGKSTLTSDKSSSTAYMELSSLTSEDSAVYCCARGRNRYDSWFAYWGQGTLVTVSA VL: DIQMTQTTSSLSASLGDRVTISCRASQDISNYLNWYQQKPDGTVKLLIYYTSRLHSGVPSRFSGSGSGTDYSLTISNLEQEDIATYFCQQGNTLPWTFGGGTKLEIK has Median at least equal to 10000.
0 (no)

I'd appreciate it if you could say whether 5H4 antibody (antibody, V domains shown, Hybridoma monoclonal antibody detected with anti-mouse IgG) VH: QVQLQQPGAELVKPGTSVKMSCKASGYTFTNYWMHWVKQRPGQVLEWIGVIDPSDSYTSYNQKFKGKATLTVDTSSTTAYMQLSSLTSEDSAVYYCTRGGKRAMDYWGQGTSVTVSS VL: DVLMTQTPLSLPVSLGDQASISCRSSQSLVHSNGNTYLHWYLQKPGQSPKLLIYKVSNRFSGVPDRFSGSGSGTDFTLKISRVEAEDLGVYFCSQSTHVPFTFGSGTKLEIK has Median at least equal to 10000.
1 (yes)
